Biological target: T1, PUF4 RNA-binding domain (Saccharomyces cerevisiae, UniProt P25339 537-888)
T1 sequence: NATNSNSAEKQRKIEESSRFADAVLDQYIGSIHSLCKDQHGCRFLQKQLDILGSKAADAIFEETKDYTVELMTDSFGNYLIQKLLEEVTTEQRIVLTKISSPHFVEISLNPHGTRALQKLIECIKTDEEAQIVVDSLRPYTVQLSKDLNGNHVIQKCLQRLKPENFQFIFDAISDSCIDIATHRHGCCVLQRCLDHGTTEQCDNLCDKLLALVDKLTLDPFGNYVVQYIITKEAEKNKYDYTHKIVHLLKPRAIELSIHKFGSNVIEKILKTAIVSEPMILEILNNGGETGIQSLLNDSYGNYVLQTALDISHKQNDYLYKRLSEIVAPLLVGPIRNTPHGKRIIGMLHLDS
Assay: Mg; RNA-MaP; 20 mM Na-HEPES pH 7.4, 30 mM KOAc, 0.75 mM MgCl2, 0.1% Tween-20, 5% glycerol, 0.1 mg/mL BSA, 2 mM DTT; 25 C; 0.0125-409.6 nM protein
Settings: tags: N-His6-TEV cleaved; C-SNAP kept, Cy3B-labelled; label: tethered on chip by stalled RNA polymerase
test.readout: pKd
Please treat pKd as minus the base-10 logarithm of the molar concentration.

Examples with answers:
UCUCUUGUACACUAUACCUCUCUU (ssRNA) [Id_ii_S1_P3E.4_K3.3_C3.2_[C-2G]_H3.3_A3.1_F3.1_T3.2_[T9C]_[A10C]]    9.01
UCUCUUUGUAAUCCCUCUCUU (ssRNA) [Ic_S1_P4E.1_K4.1_C4.1_H4.1_A4.1_[T5A]_[A6T]_[T7C]_F4.1_[T8C]_[A9C]_T4.1]    5.97
Ic_S2_P3E.1_K3.1_C3.1_H3.1_A3.1_[T5C]_[A6C]_F3.1_[T7A]_[A8T]_T3.1 (ssRNA) RNA: UUUGAUUAAUAUGAUAUCGUUCUUUCUUGUACCAUUUCUUUCUCGAUAUCAUAUUAAUCUUU    8.43
UCUCUUCUUGUACUCUCUAUAUAUCUCUU (ssRNA) [Ie_S1_P3E.2_K3.1_C3.2_H3.1_[+4CTCTC]_A3.1_F3.1_T3.2]    7.51
UCUCUUUGUAUAUUAUUCCUCUCUU (ssRNA) [Ie_S1_P4E.1_K4.1_C4.1_H4.1_A4.1_F4.1_[+9TTCC]_T4.1]    9.32
Ie_S4_P4E.1_K4.1_C4.1_H4.1_A4.1_F4.1_[+9CTT]_T4.1 (ssRNA) RNA: UUUGACAACUGAUCGUUCUUUCUUGUAUAUUACUUUUCUUUCUCGAUCAGUUGUCUUU    8.97
UCUCUUUGUACGUGUUUCUCUU (ssRNA) [Ic_S1_P5E.1_K5.1_C5.1_H5.1_A5.1_[T5C]_[T6G]_[A7T]_F5.1_[T8G]_[A10T]_T5.1]    7.01

Data request: Give its pKd value. Item: UCUCUUCGUAUGUAUCUCUU (ssRNA) [Ib_S1_P3E.1_K3.1_C3.1_H3.1_[T1C]_A3.1_[A6G]_F3.1_T3.1]
Data returned: 6.03

Every entry's value here was drawn from paper PMC9352680.
